# Test system: Sulfurihydrogenibium yellowstonense
# Test: Activity of Sulfurihydrogenibium yellowstonense YO3AOP1 recombinant CA expressed in Escherichia coli BL21(DE3) after 15 mins by phenol red staining based stopped flow CO2 hydration assay
Measured quantity: KA (µM)
Numbers only, in µM.

- Smiles string: "N[C@H](Cc1c[nH]cn1)C(=O)O"
  KA [µM]: 0.012
- Smiles string: "N[C@H](Cc1ccc(O)cc1)C(=O)O"
  KA [µM]: 0.83
- Smiles string: "NCCc1c[nH]cn1"
  KA [µM]: 0.08
- Smiles string: "NCCc1c[nH]c2ccc(O)cc12"
  KA [µM]: 0.021
- Smiles string: "Nc1ccc(C[C@H](N)C(=O)O)cc1"
  KA [µM]: 0.97
- Smiles string: "NCCN1CCNCC1"
  KA [µM]: 0.09
- Smiles string: "N[C@H](Cc1ccc(O)c(O)c1)C(=O)O"
  KA [µM]: 0.43
- Smiles string: "N[C@H](Cc1c[nH]c2ccccc12)C(=O)O"
  KA [µM]: 0.002

Hi, could you look up KA for each item in my list?
1. NCCc1ccccn1
2. N[C@@H](Cc1ccc(O)cc1)C(=O)O
3. NCCN1CCOCC1
4. N[C@@H](Cc1c[nH]c2ccccc12)C(=O)O
5. NCCc1ccc(O)c(O)c1
6. NCc1ccccn1
7. CNC[C@@H](O)c1ccc(O)c(O)c1
8. N[C@@H](Cc1ccc(O)c(O)c1)C(=O)O

1: 0.33; 2: 0.001; 3: 0.1; 4: 0.007; 5: 0.037; 6: 0.1; 7: 0.68; 8: 0.09

Return KA measured with Sulfurihydrogenibium yellowstonense given this compound: N[C@@H](Cc1c[nH]cn1)C(=O)O
0.11
